Cited source: ChEMBL document CHEMBL1154417

test system: Human immunodeficiency virus 1; experiment: Antiviral activity against HIV1 HXB2 in human MT4 cells assessed as inhibition of viral-induced viral cytopathic effect in presence of 10% fetal bovine serum and 30% human serum by MTS assay; assay type: functional, organism-based; conditions: Human immunodeficiency virus 1, HXB2, MT4
Hi there, I'd appreciate the recorded pEC50 for every entry that follows.
API: returns pEC50 as number; meaning -log10 of concentration in mol/L.

Name the recorded pEC50 of the item CC(C)CN(C[C@@H](O)[C@H](Cc1ccccc1)NC(=O)O[C@H]1CO[C@H]2OCC[C@H]21)S(=O)(=O)c1ccc(N)cc1 in your answer. 7.72

Name the recorded pEC50 of the item CCC[C@@]1(CCc2ccccc2)CC(O)=C([C@H](CC)c2cccc(NS(=O)(=O)c3ccc(C(F)(F)F)cn3)c2)C(=O)O1 in your answer. 6.24

Name the recorded pEC50 of the item Cc1nc(COc2ccc(C[C@H](NC(=O)O[C@H]3CO[C@H]4OCC[C@H]43)[C@H](O)CN(CC(C)C)S(=O)(=O)c3ccc4c(c3)OCO4)cc2)cs1 in your answer. 8.59
